Taken from the RNAGym collection of RNA variant scans (doi:10.1073/pnas.2313332121).

Listed here: items and their measured polymerase ribozyme fitness (log ratio).
B1: TPR t1 (parent)
chain: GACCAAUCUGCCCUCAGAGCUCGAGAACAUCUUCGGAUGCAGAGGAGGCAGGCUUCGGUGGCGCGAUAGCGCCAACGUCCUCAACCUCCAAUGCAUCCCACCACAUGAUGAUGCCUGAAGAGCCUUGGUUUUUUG

# Variants of: B1
# protocol-text: polymerase ribozyme fitness, log enrichment relative to wild type (log ratio); higher = more active; in vitro selection for triplet polymerase activity
result-type: polymerase ribozyme fitness (log ratio)

[
  {
    "variant-identifier": "U116A U125A",
    "assay-value": -3.4
  },
  {
    "variant-identifier": "C12G C28U",
    "assay-value": -0.928
  },
  {
    "variant-identifier": "C3G G17A G120C",
    "assay-value": -5.46
  },
  {
    "variant-identifier": "G10A G44A G47A G61C",
    "assay-value": -3.22
  },
  {
    "variant-identifier": "U7C C13A C72G U92C",
    "assay-value": -2.47
  },
  {
    "variant-identifier": "C49A G71U G120U",
    "assay-value": 0.255
  },
  {
    "variant-identifier": "G61C C89U G113C G120C",
    "assay-value": -4.9
  },
  {
    "variant-identifier": "C53G U87G C97U G117U",
    "assay-value": -4.2
  },
  {
    "variant-identifier": "G48A G110C",
    "assay-value": -4.33
  },
  {
    "variant-identifier": "G44C G52A G127A",
    "assay-value": -3.02
  },
  {
    "variant-identifier": "C8G A50C C72A G93A",
    "assay-value": -0.538
  },
  {
    "variant-identifier": "A24G C49A G65C C70A G113U",
    "assay-value": -6.47
  },
  {
    "variant-identifier": "G44A C82A",
    "assay-value": -1.69
  },
  {
    "variant-identifier": "A18U G60U",
    "assay-value": -1.19
  },
  {
    "variant-identifier": "A5U A29U G71A U78G C123A G128U",
    "assay-value": -4.18
  },
  {
    "variant-identifier": "G69A C123A",
    "assay-value": -1.81
  },
  {
    "variant-identifier": "G61A U112A C124U",
    "assay-value": 1.83
  },
  {
    "variant-identifier": "G47U C56U C72U U116C",
    "assay-value": -3.11
  },
  {
    "variant-identifier": "A16C G52A",
    "assay-value": -1.81
  },
  {
    "variant-identifier": "A37U A46U",
    "assay-value": -2.98
  },
  {
    "variant-identifier": "U14G A37U C70U A74U U133G",
    "assay-value": -3.41
  },
  {
    "variant-identifier": "A26U G47U C64A C85U G107C A108G G110C",
    "assay-value": -6.9
  }
]
